Test system: A549 (EGFR wild-type) NSCLC cells
protocol_notes: cell viability assay, A549
Type: cell-based
applied_conditions: Homo sapiens
Source text: Table 1 summarizes the IC50 values of five different cell lines treated with TMS.
measured_quantity: IC50

Give its IC50 value. Item: COc1ccc(/C=C\c2cc(OC)c(OC)c(OC)c2)cc1 [TMS, (Z)3,4,5,4′-tetramethoxystilbene]
> 400 nM

----------
System: H358 (EGFR wild-type) NSCLC cells
protocol_notes: cell viability assay, H358
Format: cell-based
applied_conditions: Homo sapiens, NCI-H358
measured_quantity: IC50

Give its IC50 value. Item: COc1ccc(/C=C\c2cc(OC)c(OC)c(OC)c2)cc1 [TMS, (Z)3,4,5,4′-tetramethoxystilbene]
> 400 nM
